Test system: P. falciparum stage V gametocytes
Set-up: BacTiter-Glo ATP luminescence viability of purified stage V gametocytes in 384-well plates, per cent inhibition versus DMSO
Assay setup: 48 h, 5 µM; inhibitor
About 3,200 (25%) of roughly 13,000 compounds showed an effect of 50% or more. Some of the results follow.
Returns one of Criterion met or Criterion not met; Criterion met when % Inhibition is >= 40%.

- Compound: "N#Cc1ccc(-c2ccc(C(=O)NCCCCN3CCC(c4ccc5c(c4OCc4ccccn4)CCCC5)CC3)cc2)cc1"
  Assigned class: "Criterion met"
- Compound: "Cc1cccc(C(=O)Nc2ccnc(N3CCC(N(C)Cc4cccc(C#N)c4)CC3)c2)c1"
  Assigned class: "Criterion not met"
- Compound: "O=C(Nc1cccc(F)c1)N(Cc1ccc(-c2cccc(CN3CCNCC3)c2)cc1)C1CCN(Cc2ccccc2)CC1"
  Assigned class: "Criterion met"
- Compound: "CN(c1cc(NC(=O)c2ccccc2)ccn1)C1CCN(Cc2cccc(F)c2)CC1"
  Assigned class: "Criterion not met"
- Compound: "Cc1cccc2nc(-c3ccc(-c4ccc(CNCC5CCCO5)cc4)s3)[nH]c12.O=C(O)C(F)(F)F (stereo not drawn)"
  Assigned class: "Criterion met"
- Compound: "O=C(Nc1cccc(F)c1)N(Cc1ccc(-c2ccc(CN3CCNCC3)cc2)cc1)C1CCN(Cc2ccccc2)CC1"
  Assigned class: "Criterion met"
- Compound: "CCn1c(-c2nonc2N)nc2c(C#CC(C)(C)O)ncc(OCCNCCc3ccc(OC)cc3)c21"
  Assigned class: "Criterion met"
- Compound: "CCCN1CCC=C(c2cccc(Nc3nccc(Nc4cc(OC)ccc4C)n3)c2)C1"
  Assigned class: "Criterion not met"
- Compound: "O=C(NCCCCN1CC=C(c2ccc3c(c2OCc2ccccc2)CCCC3)CC1)c1ccc(-c2ccc(C(F)(F)F)cc2)cc1"
  Assigned class: "Criterion not met"
- Compound: "CC(=O)Oc1c(C2CCN(CCCCNC(=O)c3ccc(-c4ccc(C#N)cc4)cc3)CC2)ccc2c1CCCC2"
  Assigned class: "Criterion not met"
- Compound: "COc1ccccc1NC(=O)Nc1cccc(-c2cccc(-c3nc4c(C)cccc4[nH]3)c2)c1"
  Assigned class: "Criterion not met"
- Compound: "Fc1ccc2nc(-c3ccc(-c4ccc(CN5CCN(c6cnccn6)CC5)cc4)s3)[nH]c2c1"
  Assigned class: "Criterion not met"
- Compound: "COc1ccc2nccc(N3CCCN(CCNCc4ccc5c(n4)NC(=O)CS5)CC3)c2n1"
  Assigned class: "Criterion not met"
- Compound: "COc1ccccc1N(C)CCNc1cc(C)nc(Nc2ccccc2)n1"
  Assigned class: "Criterion not met"
- Compound: "O=C(NCCCCN1CCC(c2ccc3c(c2OCc2ccncc2)CCCC3)CC1)c1ccc(-c2ccc(C(F)(F)F)cc2)cc1"
  Assigned class: "Criterion met"
